- test system: FGFR3 enzyme (Millipore) (Homo sapiens)
- Construct: purchased Millipore
- Sequence (P22607 23-806): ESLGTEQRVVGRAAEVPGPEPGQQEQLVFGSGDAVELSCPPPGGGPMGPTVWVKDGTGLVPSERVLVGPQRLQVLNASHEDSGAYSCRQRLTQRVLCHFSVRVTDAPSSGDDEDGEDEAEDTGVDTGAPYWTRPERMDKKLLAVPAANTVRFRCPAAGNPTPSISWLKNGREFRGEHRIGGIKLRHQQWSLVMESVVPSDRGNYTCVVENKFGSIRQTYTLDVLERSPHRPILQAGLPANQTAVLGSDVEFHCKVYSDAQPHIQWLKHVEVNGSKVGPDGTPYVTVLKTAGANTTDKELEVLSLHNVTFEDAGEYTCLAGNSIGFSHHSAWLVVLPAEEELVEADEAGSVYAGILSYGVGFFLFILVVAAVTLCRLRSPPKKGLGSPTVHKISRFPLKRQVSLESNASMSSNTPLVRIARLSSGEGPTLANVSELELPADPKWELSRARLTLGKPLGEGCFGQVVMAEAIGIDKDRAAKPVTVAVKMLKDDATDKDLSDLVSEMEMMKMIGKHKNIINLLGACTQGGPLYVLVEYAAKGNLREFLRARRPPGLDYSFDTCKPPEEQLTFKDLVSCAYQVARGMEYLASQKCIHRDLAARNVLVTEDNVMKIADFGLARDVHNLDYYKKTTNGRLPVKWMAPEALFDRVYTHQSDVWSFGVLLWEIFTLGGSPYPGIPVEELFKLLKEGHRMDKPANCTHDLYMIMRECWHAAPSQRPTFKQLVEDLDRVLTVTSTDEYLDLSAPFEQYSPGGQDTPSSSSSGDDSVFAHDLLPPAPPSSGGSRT
- test details: FGFR Enzymatic Assay (peptide phosphorylation, FRET)
- Type: biochemical
- particulars: pre-incubated for 4 hours; ATP 140 μM, peptide 500 nM
reported endpoint: IC50

Illustrative cases are given below, each with its answer.
INSERT INTO results (record_smiles, recorded_result) VALUES
  ('COc1cc2[nH]nc(-c3cnn(CCO)c3)c2cc1C(=O)Nc1c(C)cccc1C', '10 to 30 nM'),
  ('COc1cc2[nH]nc(-c3cnn(C4CC4)c3)c2cc1C(=O)Nc1c(C)cccc1C', '< 10 nM');

q: Field request: IC50 | item: COc1cc2[nH]nc(-c3cnn(C4CN(S(C)(=O)=O)C4)c3)c2cc1C(=O)Nc1c(C)cccc1C
a: < 10 nM

q: Another molecule: COc1cc2[nH]nc(-c3cnn(C4CN(C(=O)N(C)C)C4)c3)c2cc1C(=O)Nc1c(C)cccc1C
a: < 10 nM

---

Each entry below carries its recorded IC50.
- test system: FGFR3 enzyme (Millipore) (Homo sapiens)
- Construct: purchased Millipore
- test details: FGFR Enzymatic Assay (peptide phosphorylation, FRET)
- Type: biochemical
- particulars: pre-incubated for 4 hours; ATP 140 μM, peptide 500 nM

INSERT INTO measurements (molecule, test_system, reported_endpoint, recorded_result) VALUES
  ('COc1cc2[nH]nc(-c3cnn(CC4CCNCC4)c3)c2cc1C(=O)Nc1c(C)cccc1C [Example 39]', 'FGFR3 enzyme (Millipore) (Homo sapiens)', 'IC50', '10 to 30 nM'),
  ('COc1cc2[nH]nc(-c3cnn(-c4ccccn4)c3)c2cc1C(=O)Nc1c(C)cccc1C [Example 42]', 'FGFR3 enzyme (Millipore) (Homo sapiens)', 'IC50', '30 to 200 nM'),
  ('COc1cc2[nH]nc(-c3cnn(C)c3)c2cc1C(=O)Nc1c(F)cccc1Cl [Example 2]', 'FGFR3 enzyme (Millipore) (Homo sapiens)', 'IC50', '< 10 nM'),
  ('COc1cc2[nH]nc(-c3cnn(C)c3)c2cc1C(=O)Nc1c(C)cc(F)cc1C [Example 5]', 'FGFR3 enzyme (Millipore) (Homo sapiens)', 'IC50', '< 10 nM'),
  ('COc1cc2[nH]nc(-c3cnn(C)c3)c2cc1C(=O)Nc1c(C)cccc1OC [Example 9]', 'FGFR3 enzyme (Millipore) (Homo sapiens)', 'IC50', '30 to 200 nM'),
  ('COC(=O)N1CC(n2cc(-c3n[nH]c4cc(OC)c(C(=O)Nc5c(C)cccc5C)cc34)cn2)C1 [Example 31]', 'FGFR3 enzyme (Millipore) (Homo sapiens)', 'IC50', '< 10 nM');

Turning now to a further molecule:
q: Field request: IC50 | item: COc1cc(C)c(NC(=O)c2cc3c(-c4cnn(C)c4)n[nH]c3cc2OC)c(C)c1 [Example 10]
a: 30 to 200 nM
